Task for the reader: assign each of the following molecules its reported melting point.

Quick note, melting point for COc1cc(Cl)cc(CSCCNC(=O)c2c(Cl)cccc2Cl)c1 landed at 83 to 84 °C

# molecule O=C(NCCSCc1cccc([N+](=O)[O-])c1)c1c(Cl)cccc1Cl ; its melting point = 76 to 78 °C

Entry COc1cc(CSCCNC(=O)c2c(Cl)cccc2Cl)cc(OC)c1 — recorded melting point = 46 to 47 °C

Looking up O=C(NCCSCc1ccc(Cl)cc1)c1c(Cl)cccc1Cl , I see its melting point listed as 104 to 106 °C

Field melting point (entry O=C(NCCS(=O)(=O)Cc1cccc(Cl)c1)c1c(Cl)cccc1Cl ) reads 156 to 158 °C

Form: molecule = O=C(NCCSCc1cccc(F)c1)c1c(F)cccc1F ; melting point = 39 to 41 °C

Field melting point (entry Nc1cccc(CSCCNC(=O)c2c(Cl)cccc2Cl)c1 ) reads 55 to 56 °C

// recorded melting point for O=C(NCCSCc1cccc(Br)c1)c1c(Br)cccc1Br : 70 to 72 °C

Per the record, COc1cccc(OC)c1C(=O)NCCSCc1cccc(Cl)c1 has melting point of 90 to 91 °C

The molecule identified as O=C(NCCSCc1cccc(C(F)(F)F)c1)c1c(Cl)cccc1Cl registered its melting point at 54 to 55 °C

What the record says about CCOC(=O)c1cccc(CSCCNC(=O)c2c(Cl)cccc2Cl)c1 : melting point is 43 to 45 °C

So, O=C(NCCSCc1cccc(Cl)c1)c1c([N+](=O)[O-])cccc1[N+](=O)[O-] ? Its melting point was 139 to 140 °C

// melting point lookup, molecule = O=C(NCCOCc1cccc(Cl)c1)c1c(Cl)cccc1Cl , result: 70 to 72 °C

Measured melting point, O=C(O)c1cccc(CSCCNC(=O)c2c(Cl)cccc2Cl)c1 : 165 to 166 °C

The molecule listed as O=C(NCCSCc1cccc(Br)c1)c1c(Cl)cccc1Cl has a reported melting point of 74 to 76 °C

melting point reported for this molecule O=C(NCCSCc1ccccc1)c1c(Cl)cccc1Cl : 96 to 97 °C

The molecule listed as COc1cccc(CSCCNC(=O)c2c(Cl)cccc2Cl)c1OC shows melting point equal to 108 to 110 °C

// melting point lookup, molecule = O=C(NCC[S+]([O-])Cc1cccc(O)c1)c1c(Cl)cccc1Cl (stereo not shown) , result: 165 to 166 °C

The measured melting point associated with O=C(NCCSCc1cccc(I)c1)c1c(Cl)cccc1Cl reads 75 to 78 °C

Quick note, melting point for N#Cc1c(Cl)cccc1CSCCNC(=O)c1c(Cl)cccc1Cl landed at 166 to 168 °C

O=C(NCCSCc1cccc(NC(=O)C2CC2)c1)c1c(Cl)cccc1Cl has a reported melting point of 46 to 47 °C

Memo: O=C(NCCS(=O)(=O)Cc1cccc(O)c1)c1c(Cl)cccc1Cl , reported melting point: 139 to 141 °C

The measured melting point associated with N#Cc1cccc(CSCCNC(=O)c2c(Cl)cccc2Cl)c1 reads 123 to 125 °C

The molecule identified as O=C(NCCSCc1cccc(O)c1)c1c(O)cccc1O registered its melting point at 61 to 62 °C

Form field melting point, entry O=C(NCCSCc1cccc(Cl)c1)c1c(C(F)(F)F)cccc1C(F)(F)F : 93 to 94 °C

So, COc1cccc(CSCCNC(=O)c2c(Cl)cccc2OC)c1 ? Its melting point was 58 to 59 °C

Please fill in: melting point reported for O=C(NCCSCc1ccccc1Cl)c1c(Cl)cccc1Cl = 110 to 112 °C

Looking up COc1cccc(CSCCNC(=O)c2c([N+](=O)[O-])cccc2[N+](=O)[O-])c1 , I see its melting point listed as 69 to 71 °C

melting point reading for O=C(NCCSCc1cccc(Cl)c1)c1ccccc1 : 75 to 76 °C

Consider COc1ccc(CSCCNC(=O)c2c(Cl)cccc2Cl)cc1 . Its measured melting point is 80 to 81 °C

In plain terms, O=Cc1cccc(CSCCNC(=O)c2c(Cl)cccc2Cl)c1 has a documented melting point of 63 to 65 °C
